# TEST PROTOCOL: Toxicity liver stage against HepG2, at 10uM
# Type: cell-based
# Parameters: test concentration 10 uM, cell line HepG2-A16-CD81EGFP
# PROTOCOL CONDITIONS: human, HepG2-A16-CD81EGFP cells; read-out: INHIBITION
QUANTITY MEASURED: cytotoxicity at 10 µM (%)
Answer in %, number only, no unit symbol.

Answer with reported cytotoxicity at 10 µM of O=C(c1cccc2cc[nH]c12)N1CCC2(CCOC2)C1 (stereo not given)
-152

Answer with reported cytotoxicity at 10 µM of COc1c(CNC2CCc3c(Cl)cccc32)c(C)nn1C (stereo not given)
13.3

Answer with reported cytotoxicity at 10 µM of Cc1nc(N2CCN(C(=O)C3CCCC3)CC2)c2c(n1)c(C)nn2C
6.97

Answer with reported cytotoxicity at 10 µM of O=C(CCCc1ccccc1)N1CCCC(n2cncn2)C1 (stereo not given)
-18.3

Answer with reported cytotoxicity at 10 µM of Cc1cccc(N2CCCC3(C2)CN(S(C)(=O)=O)CCO3)c1 (stereo not given)
10.2

Answer with reported cytotoxicity at 10 µM of CCN(CC)CCn1c(NC(=O)c2scnc2C)nc2ccccc21
-27.5

Answer with reported cytotoxicity at 10 µM of COc1cc(C(=O)NC(CC(=O)O)c2cccs2)cc(Cl)c1OC (stereo not given)
4.31

Answer with reported cytotoxicity at 10 µM of COc1ccc(N2CCCN(C(=O)Cc3csc(C)n3)CC2)cc1
3.91

Answer with reported cytotoxicity at 10 µM of O=C1[C@H]2CN(C3CCOCC3)C[C@H]2CN1Cc1cccnc1
-127

Answer with reported cytotoxicity at 10 µM of Cc1cnccc1N1CCCN(C(=O)CCn2ccnc2C)CC1
-6.32

Answer with reported cytotoxicity at 10 µM of O=C(CSc1ccc(F)c(F)c1)NS(=O)(=O)c1ccc2c(c1)OCCO2
-4.28

Answer with reported cytotoxicity at 10 µM of CNc1ncccc1C(=O)N1CCN(Cc2ccc(C)cc2)C(=O)C1C (stereo not given)
5.67

Answer with reported cytotoxicity at 10 µM of O=C(NCc1nnc2n1CCC2)c1ccc(C2CCCO2)s1 (stereo not given)
-12.4

Answer with reported cytotoxicity at 10 µM of Cc1cc(C(=O)N2CC[C@H]3[C@H]2CCN3S(C)(=O)=O)c(C)o1
-83.1

Answer with reported cytotoxicity at 10 µM of CC(=O)c1c(O)n(C)c2ccccc12
1.64

----------
Answer each item with its documented cytotoxicity at 10 µM.
# TEST PROTOCOL: Toxicity liver stage against HepG2, at 10uM
# Type: cell-based
# Set-up: test concentration 10 uM, cell line HepG2-A16-CD81EGFP
# PROTOCOL CONDITIONS: human, HepG2-A16-CD81EGFP cells; read-out: INHIBITION
Answer in %, number only, no unit symbol.

Answer with reported cytotoxicity at 10 µM of O=C(CCc1ccsc1)N1CCC(Nc2cccnn2)CC1
-4.71

Answer with reported cytotoxicity at 10 µM of Cc1csc(CCNC(=O)Nc2cc(C(F)(F)F)c[nH]c2=O)n1
8.13

Answer with reported cytotoxicity at 10 µM of CCC(C#N)NC(=O)c1cc(Br)c2c(c1)OCCO2 (centres undefined)
-15.7

Answer with reported cytotoxicity at 10 µM of CCCOc1cccc(OCc2ccon2)c1
-4.9

Answer with reported cytotoxicity at 10 µM of CCN(C(=O)CCCOc1ccccc1F)c1ccncc1
-5.69

Answer with reported cytotoxicity at 10 µM of CCOCC(O)CN1CCN(C(=O)c2ccccc2F)CC1 (centres undefined)
-2.15

Answer with reported cytotoxicity at 10 µM of CN(C1CCCN(c2ccccn2)C1)S(C)(=O)=O (centres undefined)
1.07

Answer with reported cytotoxicity at 10 µM of Cc1cccc(C(=O)N2CCCC2)c1NCC(=O)NC(C)(C#N)C1CC1 (centres undefined)
-6.8

Answer with reported cytotoxicity at 10 µM of Cc1noc(C)c1CS(=O)(=O)CC(=O)N1CCc2sccc2C1
-17

----------
# TEST PROTOCOL: Toxicity liver stage against HepG2, at 10uM
# Assay type: cell-based
# Parameters: test concentration 10 uM, cell line HepG2-A16-CD81EGFP
# PROTOCOL CONDITIONS: human, HepG2-A16-CD81EGFP cells; read-out: INHIBITION
QUANTITY MEASURED: cytotoxicity at 10 µM (%)
Answer in %, number only, no unit symbol.

Answer with reported cytotoxicity at 10 µM of Cc1cnc(C)c(N2CCC(Cc3ccccc3Cl)(C(=O)O)CC2)n1
3.4

Answer with reported cytotoxicity at 10 µM of c1cnc(N2CCO[C@H]3[C@H](OCC4CC4)CC[C@@H]32)nc1
5.88

Answer with reported cytotoxicity at 10 µM of c1cc(C2CC2)n2cnc(C3CN(Cc4ccncc4)CCO3)c2c1 (centres undefined)
6.59

Answer with reported cytotoxicity at 10 µM of O=C(c1ncn2c1CNS(=O)(=O)c1ccccc1-2)N1CCCCCC1
9.79

Answer with reported cytotoxicity at 10 µM of CCN(C)c1ncnc2c1CCN(C(=O)N1CCOCC1)CC2
0.223

Answer with reported cytotoxicity at 10 µM of CC(C)N(CC(N)=O)Cc1csc(COc2ccc(F)cc2)n1
33.9

Answer with reported cytotoxicity at 10 µM of Cn1cc(C2CCCN2C(=O)Cn2ccc3ccccc32)cn1 (centres undefined)
5.08

Answer with reported cytotoxicity at 10 µM of C[C@@H]1CN(C(=O)C2(Cn3cccn3)CC2)C[C@@]1(O)C1CCC1
1.56

Answer with reported cytotoxicity at 10 µM of CC(=O)N1CCC(c2cc3c(ncn3C)c(-c3cnn(C)c3)n2)CC1
0.472

Answer with reported cytotoxicity at 10 µM of N#Cc1ccc(CSCCN2CCOCC2)cc1
4.2

Answer with reported cytotoxicity at 10 µM of O=C(Cc1cccnc1)N1CCC2(CC1)CCN(C1CCOC1)C2 (centres undefined)
-2.52

Answer with reported cytotoxicity at 10 µM of CCc1cc(NC2CCS(=O)(=O)C2)nc(N2CCCCC2)n1 (centres undefined)
-3.15

Answer with reported cytotoxicity at 10 µM of Cc1nc(-c2ccncc2)ncc1C(C)NC(=O)CN1CCCC1=O (centres undefined)
1.74

Answer with reported cytotoxicity at 10 µM of CN(C(=O)c1ccon1)[C@@H]1CCC[C@@H](Oc2ccccc2)[C@@H]1O
-17.5

Answer with reported cytotoxicity at 10 µM of CC(=O)c1ccc(C(=O)Nc2ccnc(N(C)C)n2)cc1
2.49

Answer with reported cytotoxicity at 10 µM of CCc1ccc(S(=O)(=O)Nc2cn(C)cc(Br)c2=O)cc1
-10.8

Answer with reported cytotoxicity at 10 µM of O=C(C1CC(=O)N(c2n[nH]c3cc(Br)ccc23)C1)N1CCSCC1 (centres undefined)
-1.91

Answer with reported cytotoxicity at 10 µM of CS(=O)(=O)NC(=O)c1ccn(-c2ccc(Cl)c(Cl)c2)n1
6.96

Answer with reported cytotoxicity at 10 µM of O=C(c1cncc(F)c1)N1CCC(c2ncc[nH]2)CC1
-1.39

----------
Answer each item with its documented cytotoxicity at 10 µM.
# TEST PROTOCOL: Toxicity liver stage against HepG2, at 10uM
# Type: cell-based
# Set-up: test concentration 10 uM, cell line HepG2-A16-CD81EGFP
# PROTOCOL CONDITIONS: human, HepG2-A16-CD81EGFP cells; read-out: INHIBITION
Write the quantity with the unit trailing the number.

Answer with reported cytotoxicity at 10 µM of CC(C)c1nnc(NC(=O)N(C)Cc2ccncc2)s1
5.28%

Answer with reported cytotoxicity at 10 µM of CC(C)NC(=O)N1CCc2c(CNc3ncccn3)cncc2C1
5.83%

Answer with reported cytotoxicity at 10 µM of Cc1ccc(-c2csc3c(=O)[nH]c(N4CCCC(C(=O)O)C4)nc23)cc1 (configuration not stated)
-68%

Answer with reported cytotoxicity at 10 µM of CNc1cc(CNC(=O)c2ccccc2)nc(-c2ccncc2)n1
0.462%

Answer with reported cytotoxicity at 10 µM of c1cnn(CC2CCCN2Cc2cn3ccsc3n2)c1 (configuration not stated)
-10.2%

Answer with reported cytotoxicity at 10 µM of CN1CC2(CCN(Cc3cccnc3)CC2)c2cc(F)ccc21
14%

Answer with reported cytotoxicity at 10 µM of Cn1ccnc1CN1CCC2(CC(=O)N(c3cccc(F)c3)C2)C1 (configuration not stated)
6.97%

Answer with reported cytotoxicity at 10 µM of CC(C)Nc1ncnc2c1CCN(Cc1ccoc1)CC2
5.65%

Answer with reported cytotoxicity at 10 µM of O=c1[nH]c2cn(-c3ccc(Cl)cc3)c(=O)n2[nH]1
2.43%

Answer with reported cytotoxicity at 10 µM of Cc1ccccc1C1CCN(CCn2cc(-c3cccc(O)c3)nn2)C1 (configuration not stated)
18.2%

Answer with reported cytotoxicity at 10 µM of Cc1cc(NC(=O)NC(C)(C)c2nc(C)c(C)s2)no1
-1.95%

Answer with reported cytotoxicity at 10 µM of CCn1cc(CN2CCCN(C3Cc4ccccc4C3)CC2)cn1
2.66%

Answer with reported cytotoxicity at 10 µM of COc1ccc(C(C)NCCc2ccc(NC(C)=O)cc2)c(OC)c1 (configuration not stated)
4.49%

Answer with reported cytotoxicity at 10 µM of Cc1nsc(NC(=O)NC2CCN(C)CC2)n1
-10.7%

Answer with reported cytotoxicity at 10 µM of CN(C)CCN1CCOCC2(C1)CN(Cc1nccs1)CCO2 (configuration not stated)
6%

Answer with reported cytotoxicity at 10 µM of CCC(C)(N)c1nc(=O)c(C(C)C)c(C)[nH]1 (configuration not stated)
-6.17%

Answer with reported cytotoxicity at 10 µM of O=C(c1cc(COc2ccc3c(c2)OCO3)[nH]n1)N1CCCC(O)C1 (configuration not stated)
-8.07%
